- TGT: Human α2δ-1 subunit of Cav2.2 calcium channel (Homo sapiens)
- Sequence (P54289 25-1103): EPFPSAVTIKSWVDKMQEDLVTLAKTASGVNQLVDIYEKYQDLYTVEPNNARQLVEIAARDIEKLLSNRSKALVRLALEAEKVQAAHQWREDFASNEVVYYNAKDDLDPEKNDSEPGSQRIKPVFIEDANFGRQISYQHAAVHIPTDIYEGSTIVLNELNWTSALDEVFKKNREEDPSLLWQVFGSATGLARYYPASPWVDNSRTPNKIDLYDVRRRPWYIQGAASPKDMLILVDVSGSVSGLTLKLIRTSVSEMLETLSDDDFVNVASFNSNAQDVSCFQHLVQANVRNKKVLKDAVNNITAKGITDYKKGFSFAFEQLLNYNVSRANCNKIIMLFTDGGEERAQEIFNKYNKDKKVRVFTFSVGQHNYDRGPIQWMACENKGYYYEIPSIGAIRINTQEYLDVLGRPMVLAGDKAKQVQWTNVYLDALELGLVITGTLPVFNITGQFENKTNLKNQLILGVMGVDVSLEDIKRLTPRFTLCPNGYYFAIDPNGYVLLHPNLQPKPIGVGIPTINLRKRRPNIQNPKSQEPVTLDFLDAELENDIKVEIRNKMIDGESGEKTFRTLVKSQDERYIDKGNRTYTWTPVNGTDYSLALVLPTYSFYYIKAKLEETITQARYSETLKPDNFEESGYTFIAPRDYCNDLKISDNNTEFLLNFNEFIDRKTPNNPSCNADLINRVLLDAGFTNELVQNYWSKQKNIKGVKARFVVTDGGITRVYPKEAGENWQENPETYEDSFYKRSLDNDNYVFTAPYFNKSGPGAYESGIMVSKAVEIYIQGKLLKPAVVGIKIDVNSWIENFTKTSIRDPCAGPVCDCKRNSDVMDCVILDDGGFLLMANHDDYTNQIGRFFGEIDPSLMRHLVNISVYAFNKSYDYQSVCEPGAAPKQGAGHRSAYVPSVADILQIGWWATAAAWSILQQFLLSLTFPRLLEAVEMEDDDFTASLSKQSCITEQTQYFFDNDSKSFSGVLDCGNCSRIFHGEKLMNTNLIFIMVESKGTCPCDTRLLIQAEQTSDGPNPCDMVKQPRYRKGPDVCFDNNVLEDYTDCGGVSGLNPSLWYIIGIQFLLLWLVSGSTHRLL
- ASSAY: Human α2δ-1 subunit of Cav2.2 calcium channel assay ([3H]-Gabapentin radioligand binding)
- RECORDED CONDITIONS: Human α2δ-1 enriched membranes, 15 nM [3H]-Gabapentin, 60 min at 27 °C
pKi: −log10 of the molar value.
ASSAY ENDPOINT: pKi

1) N#Cc1cccc(-c2cn([C@@H]3CN[C@H](C(=O)O)C3)nn2)c1 = ≤ 5.30
2) O=C(O)[C@@H]1C[C@H](n2cc(-c3ccccn3)nn2)CN1 = 5.30 to 6.30
3) COc1ccc(-c2cn([C@@H]3CN[C@H](C(=O)O)C3)nn2)c(Cl)c1 = ≤ 5.30
4) O=C(O)[C@@H]1C[C@H](n2cc(-c3cc(F)cc(F)c3)nn2)CN1 = ≤ 5.30
5) O=C(O)[C@@H]1C[C@H](n2cc(-c3ccccc3Cl)nn2)CN1 = 5.30 to 6.30
6) N#Cc1ccc(-c2cn([C@@H]3CN[C@H](C(=O)O)C3)nn2)cc1 = ≤ 5.30
7) O=C(O)[C@@H]1C[C@H](n2cc(-c3ccc(Br)cc3)nn2)CN1 = 5.30 to 6.30
8) O=C(O)[C@@H]1C[C@H](n2cc(-c3ccncc3)nn2)CN1 = ≤ 5.30
